target: UniProt P25099; test: Binding affinity for adenosine A1 receptor was assayed by displacement of [3H]DPCPX from rat cortical membranes.; type: cell membranes, Membrane
Sequence (P25099 whole entry): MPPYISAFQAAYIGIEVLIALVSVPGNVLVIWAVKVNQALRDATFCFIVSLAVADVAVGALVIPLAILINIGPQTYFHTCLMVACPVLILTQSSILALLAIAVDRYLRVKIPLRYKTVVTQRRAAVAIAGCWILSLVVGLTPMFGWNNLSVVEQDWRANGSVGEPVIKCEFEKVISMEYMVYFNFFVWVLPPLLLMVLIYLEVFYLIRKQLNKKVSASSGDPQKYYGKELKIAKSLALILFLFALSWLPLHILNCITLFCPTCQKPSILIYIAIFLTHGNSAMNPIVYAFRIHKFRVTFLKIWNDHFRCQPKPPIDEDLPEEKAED
measurement-kind: Ki (nM)

[
  {
    "compound": "OC[C@H]1O[C@@H](n2cnc3c(NC4CC4)ncnc32)[C@H](O)[C@@H]1O",
    "Ki, nM": 26.7
  },
  {
    "compound": "OC[C@H]1O[C@@H](n2cnc3c(NC4CCCCC4)cc(Cl)nc32)[C@H](O)[C@@H]1O",
    "Ki, nM": 268
  },
  {
    "compound": "OC[C@H]1O[C@@H](n2cnc3c(NC4CCCCCC4)cc(Cl)nc32)[C@@H](O)C1O (stereo not given in full)",
    "Ki, nM": 247
  },
  {
    "compound": "OC[C@H]1O[C@@H](n2cnc3c(NC4CCCCC4)ccnc32)[C@H](O)[C@@H]1O",
    "Ki, nM": 169
  },
  {
    "compound": "OC[C@H]1O[C@@H](n2cnc3c(NC4CC4)ccnc32)[C@H](O)[C@@H]1O",
    "Ki, nM": 326
  }
]

I. OC[C@H]1O[C@@H](n2cnc3c(NC4CC4)cc(Cl)nc32)[C@H](O)[C@@H]1O
II. OC[C@H]1O[C@@H](n2cnc3c(NC4CCCC4)ccnc32)[C@H](O)[C@@H]1O
Query string: Of the two listed items, which has the higher Ki? First: I Second: II Give the chosen item's label as your response.
Result string: I
(I: 151 nM, II: 100 nM)

1. OC[C@H]1O[C@@H](n2cnc3c(NC4CCC4)ccnc32)[C@H](O)[C@@H]1O
2. OC[C@H]1O[C@@H](n2cnc3c(NC4CCCCC4)nc(Cl)nc32)[C@H](O)[C@@H]1O
3. OC[C@H]1OC(n2cnc3c(NC4CCCCCCC4)cc(Cl)nc32)[C@H](O)[C@@H]1O (stereo not given in full)
4. OC[C@H]1O[C@@H](n2cnc3c(NC4CCCCCC4)ncnc32)[C@H](O)[C@@H]1O
5. OC[C@H]1OC(n2cnc3c(NC4CCCCCC4)ccnc32)[C@H](O)[C@@H]1O (stereo not given in full)
Query string: Which order do these items take when sorted by rising Ki? List them. Order the labels as requested and list them.
Result string: 4, 2, 1, 5, 3
(4: 19.6 nM, 2: 31.7 nM, 1: 109 nM, 5: 364 nM, 3: 595 nM)

1. OC[C@H]1OC(n2cnc3c(NC4CCCCCC4)nc(Cl)nc32)[C@H](O)[C@@H]1O (stereo not given in full)
2. OC[C@H]1O[C@@H](n2cnc3c(NC4CCC4)nc(Cl)nc32)[C@H](O)[C@@H]1O
Query string: Of the two listed items, which has the higher Ki? First: 1 Second: 2 Give the chosen item's label as your response.
Result string: 1
(1: 37.9 nM, 2: 5.3 nM)

I. OC[C@H]1O[C@@H](n2cnc3c(NC4CCCC4)cc(Cl)nc32)[C@H](O)[C@@H]1O
II. OC[C@H]1OC(n2cnc3c(NC4CCCCCCC4)nc(Cl)nc32)[C@H](O)[C@@H]1O (stereo not given in full)
III. OC[C@H]1O[C@@H](n2cnc3c(NC4CCC4)ncnc32)[C@H](O)[C@@H]1O
IV. OC[C@H]1OC(n2cnc3c(NC4CCCCCCC4)ccnc32)[C@H](O)[C@@H]1O (stereo not given in full)
Query string: # rank_down: sort by Ki, max first Order the labels as requested and list them.
Result string: IV, II, I, III
(IV: 539 nM, II: 122 nM, I: 49 nM, III: 3.92 nM)
